So I've got a bunch of molecules here, and I need their EC50 values.
- target_of_assay: human PPAR γ (Homo sapiens)
- Construct: 174-475 (PPARγ)
- Sequence (P37231 202-503): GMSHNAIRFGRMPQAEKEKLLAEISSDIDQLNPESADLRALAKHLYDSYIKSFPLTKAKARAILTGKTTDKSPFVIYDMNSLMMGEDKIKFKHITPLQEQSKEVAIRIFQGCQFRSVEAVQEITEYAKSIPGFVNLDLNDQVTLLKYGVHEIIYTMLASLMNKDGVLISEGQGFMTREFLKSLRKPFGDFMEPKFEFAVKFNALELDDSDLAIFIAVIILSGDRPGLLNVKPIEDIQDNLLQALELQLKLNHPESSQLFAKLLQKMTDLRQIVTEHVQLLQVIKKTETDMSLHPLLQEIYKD
- assay_protocol: Transcriptional activity, GAL4-PPAR LBD chimera / PLAP reporter in CV-1 cells
- protocol_conditions: GAL4-PPARγ LBD, PLAP activity 24 hours after addition
Numbers only, in nM.

Illustrative cases are given below, each with its answer.
input_smiles: CCOc1ccc(-c2cccc(CC(=O)O)c2)cc1CNC(=O)OCc1ccc(CC)cc1
uom: nM
result_number: 700

input_smiles: COc1ccc(-c2cccc(CC(=O)O)c2)cc1/C(C)=N/OCc1ccc(C(F)(F)F)cc1
uom: nM
result_number: 654

input_smiles: CCCOc1ccc(C(=O)NCc2cc(-c3cccc(/C=C(\CC)C(=O)O)c3)ccc2OC)c(Cl)c1
uom: nM
result_number: 31

Next up:
Returns the measured EC50 for the input molecule. Input: COc1ccc(-c2ccc(C)c(C(=O)O)c2)cc1CNC(=O)c1ccc(Cl)cc1Cl
43

---

- target_of_assay: human PPAR β (NUC-1, PPARβ(δ)) (Homo sapiens, UniProt Q03181)
- Construct: 138-440 (NUC-1)
- Sequence (Q03181 138-440): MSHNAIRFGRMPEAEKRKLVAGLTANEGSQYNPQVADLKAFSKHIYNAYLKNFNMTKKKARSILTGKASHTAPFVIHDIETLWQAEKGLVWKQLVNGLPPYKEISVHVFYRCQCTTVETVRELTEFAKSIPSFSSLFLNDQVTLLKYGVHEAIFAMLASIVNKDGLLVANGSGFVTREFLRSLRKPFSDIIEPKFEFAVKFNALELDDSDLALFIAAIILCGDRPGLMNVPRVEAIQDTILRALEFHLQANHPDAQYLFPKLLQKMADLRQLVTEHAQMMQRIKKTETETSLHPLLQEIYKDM
- assay_protocol: Transcriptional activity, GAL4-PPAR LBD chimera / PLAP reporter in CV-1 cells
- protocol_conditions: GAL4-PPARβ(δ) (NUC-1) LBD, PLAP activity 24 hours after addition
Ranges used to classify EC50: small value (below 0.5 nM), mid value (0.5 nM to below 100 nM), large value (100 nM or more)

molecule: COc1ccc(-c2cccc(CC(=O)O)c2)cc1OCC(O)COc1ccc(C(C)(C)C)cc1 (stereo not shown) [Ex 365]
target_of_assay: human PPAR β (NUC-1, PPARβ(δ)) (Homo sapiens, UniProt Q03181)
group: large value

Which class holds COc1ccc(-c2cccc(CC(=O)O)c2)cc1/C(C)=N/OCc1ccc(C(F)(F)F)cc1 [Example 361] ?
small value

Which class holds COc1ccc(-c2cccc(CC(=O)O)c2)cc1C#CCOc1ccc(C(F)(F)F)cc1 [Example 351] ?
large value

Which class holds CCOc1ccc(-c2cccc(CC(=O)O)c2)cc1CNC(=O)OCc1ccc(CC)cc1 [Example 302] ?
mid value

Which class holds COc1ccc(-c2ccc(C)c(C(=O)O)c2)cc1CNC(=O)c1ccc(Cl)cc1Cl [Example 21] ?
large value

Which class holds COc1ccc(-c2cccc(CC(=O)O)c2)cc1CCOc1ccc(Cl)cc1Cl [Example 263] ?
small value

Which class holds CCCOc1ccc(-c2cc(C(=O)O)ccc2Cl)cc1CNC(=O)c1ccc(C(F)(F)F)cc1F [Example 199] ?
small value

Which class holds COc1ccc(-c2cccc(CC(=O)O)c2)cc1CCOC(=O)Nc1ccc(C(F)(F)F)cc1 [Example 267] ?
mid value
